ASSAY DETAILS: NCI Yeast Anticancer Drug Screen. Data for the cln2 rad14 strain (AID 165);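 further: 0% = growth equal to vehicle treated cultures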
TEST CONTEXT: S. cerevisiae cln2 rad14 strain, at 5.0 µM (retest, dose inferred, filed as 0.5), stronger effect = higher value
About 79,000 compounds went through this panel and 15% of them were active in at least one assay; those are over-represented in the sample as a whole.
Recorded growth inhibition, one value per entry.

| MOLECULE | OUTPUT UNIT | growth inhibition |
| --- | --- | --- |
| CC(C)(CC(=O)NNc1ccccc1)C(=O)O | % | 19 |
| Nc1ncnc2nc(-c3ccc(C[P+](c4ccccc4)(c4ccccc4)c4ccccc4)cc3)[nH]c12 | % | -10 |
| Cc1ccc(/C=N\NC(=S)N/N=C/c2ccc(C)cc2)cc1 | % | -43 |
| COc1cccc(C=Nc2ccc(I)cc2)c1O.COc1cccc(C=Nc2ccc(I)cc2)c1O.[Co] | % | 10 |
| Nc1cccc2c1C(=O)c1cccc(Cl)c1C2=O | % | 1 |
| COc1cc(-c2oc(C=Nc3ccccc3)c([N+](=O)[O-])c2-c2ccc(O)c(OC)c2)ccc1O | % | 7 |
| COc1ccc(C(=O)Nc2ccc(Cl)cc2)cc1 | % | -7 |
| CN=S(=O)(OCCCCOS(=O)(=NC)c1ccccc1)c1ccccc1 (stereo unspecified) | % | 8 |
| COc1ccc2cc3c4cc(OC)c(OC)cc4ccn3c2c1 | % | 5 |
| Cc1cc(Cc2cccc(Cl)c2)ccc1O | % | -21 |
| Cc1cnc2c(c1C)C(=O)c1ccccc1C2=O | % | 27 |

----------
ASSAY DETAILS: NCI Yeast Anticancer Drug Screen. Data for the bub3 strain (AID 167)
TEST CONTEXT: S. cerevisiae bub3 mutant strain, at 50.0 µM (retest, dose inferred, filed as 5.0), stronger effect = higher value
Protocol: Growth inhibition of yeast strains with defined genetic alterations is measured as a screen for potential anti-cancer activity. Selected strains with alterations in DNA damage repair or cell cycle control were exposed to compounds and growth inhibition was measured relative to vehicle treated controls. The strain used in this assay is bub3
About 79,000 compounds went through this panel and 15% of them were active in at least one assay; those are over-represented in the sample as a whole.
Threshold check on growth inhibition: at or above 90% gives Yes, strictly below gives No.

| COMPOUND | CATEGORY LABEL |
| --- | --- |
| Cc1ccc(Cc2nc(=S)[nH][nH]2)cc1 | No |
| CC(C)C1=CC23CCC4C(C)(C(=O)O)CCCC4(C)C2CC1CC3C#N (stereo unspecified) | No |
| Cc1ccc(S(=O)(=O)N/N=C(\C=C\c2ccccc2)c2ccccc2)cc1 | No |
| O=[N+]([O-])c1ccc(/C(=C\c2ccccc2)Cn2ccnc2)cc1 | Yes |
| CCOC(=O)Cc1[nH]c(C(=O)c2ccccc2)cc1C(=O)c1ccccc1 | Yes |
| N#C/C(=C\NC(=S)C(N)=S)c1nc2ccccc2s1 | Yes |
| CS/C(=N\N=C(/C)c1ccccn1)N1CCN(c2ccccn2)CC1 | Yes |
| COc1ccc2c(Cc3ccc(Cl)cc3)cncc2c1O | Yes |
| COc1cc2c(cc1OC)NCC1COc3c(ccc(OC)c3OC)C1=N2 (stereo unspecified) | No |
| NC(=O)c1ccc[n+](CC(=O)Nc2ccc(Cl)cc2)c1 | No |
| COc1ccc2c(c1)CC[C@@H]1[C@@H]2CC[C@]2(C)/C(=N/OCCN3CCCC3)CC[C@@H]12 | Yes |

----------
ASSAY DETAILS: NCI Yeast Anticancer Drug Screen. Data for the sgs1 mgt1 strain (AID 161);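 further: 0% = growth of cultures given vehicle only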
TEST CONTEXT: S. cerevisiae sgs1 mgt1 strain, at 50.0 µM (retest, dose inferred, filed as 5.0)
The panel holds about 79,000 compounds, 15% with a hit somewhere; the sample as a whole holds those more often. Calls of active or inactive are those of the source. Rule as the data show it: active = growth inhibition above about 70%; inactive = the rest.
Possible outcomes: active, inactive

| COMPOUND | CATEGORY LABEL |
| --- | --- |
| Oc1ccc(-c2nnc(-c3ccc(Cl)cc3Cl)o2)cc1 | active |
| CCOC(=O)N/N=C/c1ccc(N(C)CCC#N)cc1 | inactive |
| O=C1CSC(c2ccc([N+](=O)[O-])cc2)N1c1ccc(-c2ccc(-n3c(-c4ccccc4)nc4ccccc4c3=O)cc2)cc1 (stereo unspecified) | active |
| COc1ccc2c(c1)CCCN2CCCCCCCCCCN1CCCCC1 | active |
| CCCCCCCCCCCC[N+]1(C)CCCC1c1cccnc1 (stereo unspecified) | active |
| CCOc1cnn(-c2ccccc2)c(=O)c1SCc1ccc(Cl)c(Cl)c1 | active |
| O=C(Oc1cc(Cl)c(Cl)cc1Cl)c1ccco1 | inactive |
| O=C(CC(c1ccccc1)c1ccccc1)NCCCCN1CCCCCCC1 | active |
| COC1OC(CBr)C(OC(c2ccccc2)(c2ccccc2)c2ccccc2)C(OC(c2ccccc2)(c2ccccc2)c2ccccc2)C1OC(c1ccccc1)(c1ccccc1)c1ccccc1 (stereo unspecified) | inactive |
| Cc1cc(N=O)c(NO)cc1C | inactive |
| CCN(CCCOc1ccccc1)CCN(CC)CCCOc1ccccc1 | inactive |
| Cc1csc2c1C(=O)c1ccsc1C2=O | active |
| CCc1cccc(CC)c1Nc1nc2c(s1)C(=O)c1ccccc1C2=O | active |
| COC(CC[P+](c1ccccc1)(c1ccccc1)c1ccccc1)(C(=O)c1ccccc1)c1ccccc1 (stereo unspecified) | active |
| O=C1/C(=C/c2cccc(O)c2)COc2ccccc21 | active |
| CCCCc1c(O)c(N=NC(=O)C[n+]2ccccc2)c2ccccc2c1O | inactive |
| OC1(c2ccccc2)c2ccccc2Sc2ccccc21 | active |
| N#C/C=C/C=C/C#N | inactive |
| Cc1cc(C(O)(C(F)(F)F)C(F)(F)F)c(I)c(C(O)(C(F)(F)F)C(F)(F)F)c1 | active |
| CC(=O)Oc1cc(OC(C)=O)c2cc(Br)ccc2c1OC(C)=O | inactive |
| C=C1C(=O)C23CC[C@H]4C(C)(CCC[C@]4(C)C(=O)O)[C@@H]2CCC1C3 (stereo partly specified) | active |
| CN(C)c1cc2c(cc1[N+](=O)[O-])-c1ccccc1C2O (stereo unspecified) | inactive |
| C#CC(O)c1ccc(Cl)cc1Cl (stereo unspecified) | active |
| C/C([O-])=C1\Cc2ccccc2C1=O.C/C([O-])=C1\Cc2ccccc2C1=O.CC[O-].CC[O-].[Ti+4] | inactive |
| COC(=O)C12OCC34C(CC5C(C)C6=CC(=O)OC6=CC5(C)C3C(O)C1O)OC(=O)C(OC(C)=O)C24 (stereo unspecified) | active |
| COc1c(OC)c(C2(O)C(=O)N(C)c3ccccc32)c(OC)c(OC)c1C1(O)C(=O)N(C)c2ccccc21 (stereo unspecified) | inactive |
| NC(=O)c1cccn1Cc1ccccc1SSc1ccccc1Cn1cccc1C(N)=O | active |
| O=Nc1c(-c2c[nH]c3ccccc23)[nH]c2ccccc12 | inactive |
| S=C(N/N=C1/CCCC/C1=N/NC(=S)N1CCOCC1)N1CCOCC1 | active |
| COc1ccc2c(Cc3ccc(Cl)cc3)cncc2c1O | active |
| CC(/C=C1\CCC(CN(C)C)C1=O)c1cccc(Br)c1 (stereo unspecified) | active |
| CCOC(=O)c1c(Cl)nc2ccccc2c1N=[N+]=[N-] | active |
| Cc1[nH]c(=O)[nH]c(=S)c1C(=O)NC1C2CCCCC2NC2CCCCC21 (stereo unspecified) | active |
| ON1CCc2c([nH]c3ccccc23)C1c1ccc(Cl)cc1 (stereo unspecified) | active |
| C/C(=N\NC(=S)Nc1ccc(N(C)C)cc1)c1ccccn1 | active |
| CCCCCCCCCCCC(=O)N(CC)CC | active |
| O=C(OC1CC2CC1C1CC=CC21)c1ccccc1 (stereo unspecified) | inactive |
| O=C(Sc1ccccc1)C1OC12CCCCC2 (stereo unspecified) | inactive |
| Oc1ccc(C23CC4CC(CC(C4)C2)C3)cc1 | inactive |
| NC(=O)c1ncn(C2OC(CO)C(O)C2O)c1O (stereo unspecified) | inactive |
| Oc1cc2ccccc2cc1O | active |
| CC1CCC2(C)C(CC=C(C=O)C2(O)C=O)C12CO2 (stereo unspecified) | active |
| COc1ccc(NCCN(C)C)c2c(=O)c3ccccc3sc12 | inactive |
| Brc1c2nc3ccccc3nc2n2ccc3ccccc3c12 | active |
| CC(=O)Oc1ccc2c(c1)CCC1C2CCC2(C)C1CCC21CO1 (stereo unspecified) | inactive |
| Nc1ccc(O)c2c1C(=O)c1ccccc1C2O (stereo unspecified) | active |

----------
ASSAY DETAILS: NCI Yeast Anticancer Drug Screen. Data for the mec2-1 strain (AID 157)
TEST CONTEXT: S. cerevisiae mec2-1 strain, at 50.0 µM (retest, dose inferred, filed as 5.0)
This is part of a sample that, as a whole, favours compounds with a hit. Of some 79,000 tested, about 15% had one in any assay. Active and inactive are the calls of the source. Cut-off read from the data, not from the text of the source: active = growth inhibition above about 70%; inactive = the rest.
Possible outcomes: Y (active), N (inactive)

| COMPOUND | CATEGORY LABEL |
| --- | --- |
| CC[C@H](CC[C@@H](C)C1CC[C@H]2[C@@H]3CCC4=CC(=O)CC[C@]4(C)[C@H]3CC[C@]12C)C(C)C (stereo partly specified) | N |
| CC(=O)OCCSCCOC(C)=O | Y |
| CC1CC(c2ccccc2)(c2ccccc2)C(=O)C(C)N1C (stereo unspecified) | N |
| CC1(C)CC(=O)C(/C=N/c2nc(-c3cccc([N+](=O)[O-])c3)cs2)=C(O)C1 | Y |
| Cc1ccc(S(=O)(=O)N/N=C(\C=C\c2ccccc2)c2ccccc2)cc1 | N |
| Cc1ccc(C)c(N2C/C(=N\NC(=O)CC#N)C(c3nc4ccccc4s3)C(=O)C2=O)c1 (stereo unspecified) | N |
| CC(C)=CCC/C(C)=C/COC(=O)Nc1ccccc1 | N |
| CC1C[C@]2(C)C(=S)Nc3ccccc3[C@@H]2Nc2ccccc21 (stereo partly specified) | N |
| Clc1ccc(CN2COc3c(ccc4cccnc34)C2)cc1 | N |
| NC1OC(COC(=O)c2ccccc2)C(O)C(OC(=O)c2ccccc2)C1OC(=O)c1ccccc1 (stereo unspecified) | Y |
| C=C(c1ccc2nc(NC(=O)OC)[nH]c2c1)c1cccs1 | Y |
